experimental.system: UniProt P15101
Sequence (P15101 1-610): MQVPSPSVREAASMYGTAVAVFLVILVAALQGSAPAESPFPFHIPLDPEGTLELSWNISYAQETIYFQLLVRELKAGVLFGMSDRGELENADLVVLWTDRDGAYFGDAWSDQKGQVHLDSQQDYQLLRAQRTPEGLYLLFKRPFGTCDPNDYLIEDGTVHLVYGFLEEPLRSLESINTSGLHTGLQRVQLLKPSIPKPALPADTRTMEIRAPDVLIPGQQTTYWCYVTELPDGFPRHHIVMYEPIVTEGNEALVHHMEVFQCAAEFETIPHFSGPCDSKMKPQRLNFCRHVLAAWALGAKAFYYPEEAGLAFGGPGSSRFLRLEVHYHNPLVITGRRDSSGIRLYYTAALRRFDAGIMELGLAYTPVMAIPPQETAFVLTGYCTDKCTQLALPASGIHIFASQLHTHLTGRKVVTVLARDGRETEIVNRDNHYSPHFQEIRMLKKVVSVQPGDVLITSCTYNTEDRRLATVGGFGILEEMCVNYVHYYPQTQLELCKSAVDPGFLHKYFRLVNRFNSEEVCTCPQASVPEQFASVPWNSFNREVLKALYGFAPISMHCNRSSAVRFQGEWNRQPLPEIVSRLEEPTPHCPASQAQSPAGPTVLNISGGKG
pIC50: −log10 of the molar value.

[
  {
    "molecule": "Cl.NCc1c[nH]c(=S)n1[C@@H]1CCc2c(F)cc(F)cc2C1 [R-enantiomer, hydrochloride]",
    "pIC50": 7.60
  },
  {
    "molecule": "Cl.NCc1c[nH]c(=S)n1[C@H]1CCc2c(F)cc(F)cc2C1 [nepicastat, hydrochloride]",
    "pIC50": 8.07
  },
  {
    "molecule": "Fc1cc(F)cc(Cn2cc[nH]c2=S)c1 [SKF 102698, reference compound]",
    "pIC50": 7.17
  }
]

---

experimental.system: Ca2+/calmodulin protein kinase II
test: Selected enzyme assay
quantity.measured: IC50

[
  {
    "compound": "Cl.NCc1c[nH]c(=S)n1[C@H]1CCc2c(F)cc(F)cc2C1 [nepicastat, hydrochloride]",
    "experimental.system": "Ca2+/calmodulin protein kinase II",
    "result.value": "> 10 µM"
  }
]

---

Sequence of the target: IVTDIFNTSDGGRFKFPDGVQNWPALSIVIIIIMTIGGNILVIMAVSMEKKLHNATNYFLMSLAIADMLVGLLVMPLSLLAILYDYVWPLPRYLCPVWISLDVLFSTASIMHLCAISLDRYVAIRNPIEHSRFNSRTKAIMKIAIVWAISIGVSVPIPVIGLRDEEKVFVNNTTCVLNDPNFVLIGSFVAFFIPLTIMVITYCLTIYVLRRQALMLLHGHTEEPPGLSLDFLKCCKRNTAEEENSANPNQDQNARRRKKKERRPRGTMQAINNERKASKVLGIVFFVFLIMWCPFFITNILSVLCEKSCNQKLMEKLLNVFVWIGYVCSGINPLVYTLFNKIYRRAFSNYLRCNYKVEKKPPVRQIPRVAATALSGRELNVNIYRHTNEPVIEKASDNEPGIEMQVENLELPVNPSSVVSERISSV

[
  {
    "molecule": "Cl.NCc1c[nH]c(=S)n1[C@H]1CCc2c(F)cc(F)cc2C1 [nepicastat, hydrochloride]",
    "Ki": "> 10 µM"
  }
]

---

experimental.system: α2A adrenoceptors (Homo sapiens, UniProt P08913)
Sequence (P08913 1-465): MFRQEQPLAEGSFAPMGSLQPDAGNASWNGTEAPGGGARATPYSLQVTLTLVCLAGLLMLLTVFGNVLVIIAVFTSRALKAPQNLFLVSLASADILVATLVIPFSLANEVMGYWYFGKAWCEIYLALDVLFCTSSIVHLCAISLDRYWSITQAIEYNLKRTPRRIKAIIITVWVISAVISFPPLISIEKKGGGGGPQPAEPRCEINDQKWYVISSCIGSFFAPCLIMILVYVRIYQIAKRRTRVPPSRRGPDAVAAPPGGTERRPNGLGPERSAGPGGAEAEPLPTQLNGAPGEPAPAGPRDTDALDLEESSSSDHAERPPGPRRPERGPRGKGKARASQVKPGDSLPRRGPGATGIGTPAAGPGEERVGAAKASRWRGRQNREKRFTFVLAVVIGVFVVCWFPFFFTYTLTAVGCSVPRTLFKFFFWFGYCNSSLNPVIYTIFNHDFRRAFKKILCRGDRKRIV
quantity.measured: Ki

[
  {
    "molecule": "Cl.NCc1c[nH]c(=S)n1[C@H]1CCc2c(F)cc(F)cc2C1 [nepicastat, hydrochloride]",
    "result.value": "> 10 µM"
  }
]

---

experimental.system: 5-HT1A serotonin receptors (Homo sapiens, UniProt P08908)
Sequence (P08908 1-422): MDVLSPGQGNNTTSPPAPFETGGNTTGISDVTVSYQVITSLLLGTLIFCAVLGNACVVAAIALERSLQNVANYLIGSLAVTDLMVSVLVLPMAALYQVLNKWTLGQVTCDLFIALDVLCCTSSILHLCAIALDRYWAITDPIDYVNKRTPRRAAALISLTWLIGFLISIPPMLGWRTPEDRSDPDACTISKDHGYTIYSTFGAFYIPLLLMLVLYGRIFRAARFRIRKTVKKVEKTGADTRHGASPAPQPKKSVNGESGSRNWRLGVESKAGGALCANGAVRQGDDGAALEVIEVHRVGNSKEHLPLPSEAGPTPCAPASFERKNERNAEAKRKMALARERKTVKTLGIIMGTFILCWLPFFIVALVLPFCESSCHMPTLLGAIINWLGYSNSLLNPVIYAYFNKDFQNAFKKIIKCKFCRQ
quantity.measured: Ki

[
  {
    "molecule": "Cl.NCc1c[nH]c(=S)n1[C@H]1CCc2c(F)cc(F)cc2C1 [nepicastat, hydrochloride]",
    "result.value": "> 10 µM"
  }
]

---

experimental.system: β2 adrenoceptors (Homo sapiens, UniProt P07550)
Sequence (P07550 whole entry): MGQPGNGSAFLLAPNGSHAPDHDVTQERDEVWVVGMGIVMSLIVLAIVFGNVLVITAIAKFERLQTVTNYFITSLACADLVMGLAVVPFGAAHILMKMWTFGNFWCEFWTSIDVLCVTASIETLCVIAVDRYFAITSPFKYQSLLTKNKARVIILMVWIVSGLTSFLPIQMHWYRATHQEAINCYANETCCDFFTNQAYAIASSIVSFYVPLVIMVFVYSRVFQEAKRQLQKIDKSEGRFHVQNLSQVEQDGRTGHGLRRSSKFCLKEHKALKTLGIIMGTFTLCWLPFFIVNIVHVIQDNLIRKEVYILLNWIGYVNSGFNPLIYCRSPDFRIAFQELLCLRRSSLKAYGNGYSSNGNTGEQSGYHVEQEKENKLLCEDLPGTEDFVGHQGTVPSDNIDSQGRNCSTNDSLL

[
  {
    "molecule": "Cl.NCc1c[nH]c(=S)n1[C@H]1CCc2c(F)cc(F)cc2C1 [nepicastat, hydrochloride]",
    "Ki": "> 10 µM"
  }
]

---

experimental.system: D2 dopamine receptors (Homo sapiens, UniProt P14416)
Sequence (P14416 whole entry): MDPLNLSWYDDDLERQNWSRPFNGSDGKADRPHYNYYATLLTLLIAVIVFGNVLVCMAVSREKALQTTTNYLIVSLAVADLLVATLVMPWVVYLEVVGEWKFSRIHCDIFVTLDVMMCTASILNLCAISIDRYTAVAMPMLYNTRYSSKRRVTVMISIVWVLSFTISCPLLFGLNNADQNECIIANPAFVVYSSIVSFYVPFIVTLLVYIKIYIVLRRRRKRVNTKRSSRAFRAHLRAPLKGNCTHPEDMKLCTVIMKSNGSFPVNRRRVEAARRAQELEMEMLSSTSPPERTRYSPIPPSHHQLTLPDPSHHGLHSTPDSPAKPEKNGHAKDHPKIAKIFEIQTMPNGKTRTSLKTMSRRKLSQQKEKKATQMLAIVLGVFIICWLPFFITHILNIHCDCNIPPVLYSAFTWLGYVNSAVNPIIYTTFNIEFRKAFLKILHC
test: Radioligand binding assay
Description: The activity of nepicastat at twelve selected enzymes and receptors was determined using established assays. Details of individual receptor radioligand binding assays can be found in Wong et al (1993). Binding data were analyzed by iterative curve-fitting to a four parameter logistic equation. Ki values were calculated from IC50 values using the Cheng-Prusoff equation. […] In vitro assay of selected enzymes and neurotransmitter receptors. […] Ki values were calculated using the Cheng-Prusoff equation.

[
  {
    "compound": "Cl.NCc1c[nH]c(=S)n1[C@H]1CCc2c(F)cc(F)cc2C1 [nepicastat, hydrochloride]",
    "Ki": "> 10 µM"
  }
]
